- target-system: T1, human CTLA4 expressed on CHO cells (human, UniProt P16410 36-223)
- T1 construct: whole, on cells; Target on CHO cells stably expressing CTLA4; also called huCTLA4
- T1 sequence (P16410 36-223): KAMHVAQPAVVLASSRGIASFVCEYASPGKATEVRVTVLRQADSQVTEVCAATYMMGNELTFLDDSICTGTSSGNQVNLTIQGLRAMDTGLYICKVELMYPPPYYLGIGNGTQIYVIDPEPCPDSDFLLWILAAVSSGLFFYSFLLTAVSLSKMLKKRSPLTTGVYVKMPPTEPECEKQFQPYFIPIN
- assay-explanation: flow cytometry, CHO cells stably expressing CTLA4; MFI relative to WT CD80 ECD-Fc (Abcam)
measurement-kind: Fold change to WT CD80 (fold)
Return type: number; implicit unit fold.

[Q] Returns the measured Fold change to WT CD80 for the input binder. Input: CD80 N48K/V68M IgV-Fc (Fc fusion, not shown: small tags and cut ends; a dimerising Fc or GST) VIHVTKEVKEVATLSCGHNVSVEELAQTRIYWQKEKKMVLTMMSGDMKIWPEYKNRTIFDITNNLSIMILALRPSDEGTYECVVLKYEKDAFKREHLAEVTLSVKAD
[A] 0.1

[Q] Same thing, different binder: CD80 E35D/M47V/N48K/K89N IgV-Fc (Fc fusion, not shown: small tags and cut ends; a dimerising Fc or GST) VIHVTKEVKEVATLSCGHNVSVEELAQTRIYWQKDKKMVLTMMSGDVKIWPEYKNRTIFDITNNLSIVILALRPSDEGTYECVVLKYENDAFKREHLAEVTLSVKAD
[A] 1.1
